- System: Saccharomyces cerevisiae
- testName: protein stability index of tFT-peptide fusion (C-terminal peptide) (PSI (0-1 scale)); higher = more stable (slower turnover)
- studyConditions: genetic background: das1 deletion; temperature: 30 C
reportedEndpoint: protein stability index
Would you mind answering with just the numeric figure?

KSALSKTLGLNK [NHA1 C-terminal 12 aa]	0.699

Asked: Answer with the recorded protein stability index for the sequence listed here: SQLLLFGFGAMV [MDM32 C-terminal 12 aa]
Given back: 0.7

----------
- Tested on: Saccharomyces cerevisiae
- testName: protein stability index of tFT-peptide fusion (C-terminal peptide) (PSI (0-1 scale)); higher = more stable (slower turnover)
- studyConditions: genetic background: das1 deletion; temperature: 30 C
Recorded protein stability index for the following sequences
Would you mind answering with just the numeric figure?

SDLQKMLNKRKS [CWC24 C-terminal 12 aa]	0.69
CFFLRKENGKDE [YLR120W-A C-terminal 12 aa]	0.709
DSQDMERMDSDS [YLR076C C-terminal 12 aa]	0.691
SKKNVLYQKKNN [RTT107 C-terminal 12 aa]	0.69
LLSLLRVLKQPH [CSS1 C-terminal 12 aa]	0.675
KTFKLLTNKWIH [YAR009C C-terminal 12 aa]	0.704
VYGRNGNESHST [YGR050C C-terminal 12 aa]	0.701
LETLKKKKKRNN [MAK5 C-terminal 12 aa]	0.711

Asked: Answer with the recorded protein stability index for the sequence listed here: GLLMAGKASEFQ [VMA16 C-terminal 12 aa]
Given back: 0.694

Asked: Answer with the recorded protein stability index for the sequence listed here: SFMSYSCDMPTP [YCL022C C-terminal 12 aa]
Given back: 0.722

Asked: Answer with the recorded protein stability index for the sequence listed here: SPSPKPQHRRKR [ELO2 C-terminal 12 aa]
Given back: 0.734

Asked: Answer with the recorded protein stability index for the sequence listed here: EFDLADDRRYDI [TPO5 C-terminal 12 aa]
Given back: 0.705

Asked: Answer with the recorded protein stability index for the sequence listed here: VMLLFIFLIMKL [PEP12 C-terminal 12 aa]
Given back: 0.186

Asked: Answer with the recorded protein stability index for the sequence listed here: GTVNYAGLHDEL [SED4 C-terminal 12 aa]
Given back: 0.687

Asked: Answer with the recorded protein stability index for the sequence listed here: GTKMEWFFDPLA [IPT1 C-terminal 12 aa]
Given back: 0.732

----------
Recorded protein stability index for the following sequences
- Tested on: Saccharomyces cerevisiae
- testName: protein stability index of tFT-peptide fusion (C-terminal peptide) (PSI (0-1 scale)); higher = more stable (slower turnover)
- studyConditions: genetic background: wild type; temperature: 30 C

RHLESERAPLPG	0.688
DLSNVITKMFVI	0.654
KKKKTEIKRNKT	0.689
PALYLSLWFLFP	0.512
RSPHGLRSRIQR	0.72
CAGVGGGLVSLG	0.688
IQGRFYPLLEAH	0.606
RSIFLSRFVIGC	0.682

Asked: Answer with the recorded protein stability index for the sequence listed here: GGGVGGWGTWVV
Given back: 0.715

Asked: Answer with the recorded protein stability index for the sequence listed here: VGFGEGCLSFPF
Given back: 0.668

Asked: Answer with the recorded protein stability index for the sequence listed here: LCILIFLFRCIL
Given back: 0.551

Asked: Answer with the recorded protein stability index for the sequence listed here: GEWCGGVAVFWR
Given back: 0.693

Asked: Answer with the recorded protein stability index for the sequence listed here: SASSLPVVAARA
Given back: 0.544

Asked: Answer with the recorded protein stability index for the sequence listed here: PIAASAPPLCPR
Given back: 0.692

----------
Recorded protein stability index for the following sequences
- Test system: Saccharomyces cerevisiae
- testName: protein stability index of tFT-peptide fusion (C-terminal peptide) (PSI (0-1 scale)); higher = more stable (slower turnover)
- studyConditions: genetic background: wild type; temperature: 30 C

TIAIGKIVKIAE [SUP35 C-terminal 12 aa]	0.685
TEPVKQVLGNKE [NMA1 C-terminal 12 aa]	0.675
SRILQYKCIFTY [ARP8 C-terminal 12 aa]	0.24
TKAIEDAKKEMK [NUP2 C-terminal 12 aa]	0.737
VYGRNGNESHST [YGR050C C-terminal 12 aa]	0.689

Asked: Answer with the recorded protein stability index for the sequence listed here: TDLENETFIYPL [YCT1 C-terminal 12 aa]
Given back: 0.793

Asked: Answer with the recorded protein stability index for the sequence listed here: GLCLCCTLDMLF [YDL012C C-terminal 12 aa]
Given back: 0.662

Asked: Answer with the recorded protein stability index for the sequence listed here: PIIKEILQEYES [DNA2 C-terminal 12 aa]
Given back: 0.729

----------
- Test system: Saccharomyces cerevisiae
- testName: protein stability index of tFT-peptide fusion (C-terminal peptide) (PSI (0-1 scale)); higher = more stable (slower turnover)
- studyConditions: genetic background: wild type; temperature: 30 C
Binary call on protein stability index: True from 0.7 upward, False beneath that.

LGRFRLSRREGG	False
GTHWARLGWLLA	False
PPPPHPPSPSLP	False
IDRSHFAGVIVC	False

Asked: Does PLPLPPSVTSLL have a reported protein stability index of at least 0.7?
Given back: True

Asked: Does ASSPSPPTPPPP have a reported protein stability index of at least 0.7?
Given back: False

Asked: Does IRMEYVNTVINK have a reported protein stability index of at least 0.7?
Given back: False

----------
Recorded protein stability index for the following sequences
- System: Saccharomyces cerevisiae
- testName: protein stability index of tFT-peptide fusion (C-terminal peptide) (PSI (0-1 scale)); higher = more stable (slower turnover)
- studyConditions: genetic background: wild type; temperature: 30 C
Would you mind answering with just the numeric figure?

Solved entries (count: 4):
ERLRFYKDTFTL [RRI1 C-terminal 12 aa]	0.653
SFMSYSCDMPTP [YCL022C C-terminal 12 aa]	0.727
ATTDQEGDIHLE [PRE10 C-terminal 12 aa]	0.678
WSDKLLQIYARC [SAE2 C-terminal 12 aa]	0.516

Asked: For Saccharomyces cerevisiae, give the measured protein stability index of the entry SVTSKFKKYPYK [BET2 C-terminal 12 aa]
Given back: 0.634

Asked: For Saccharomyces cerevisiae, give the measured protein stability index of the entry PVIKKSKKCAIL [CDC42 C-terminal 12 aa]
Given back: 0.607

Asked: For Saccharomyces cerevisiae, give the measured protein stability index of the entry PYLEEAYSNLEE [PPX1 C-terminal 12 aa]
Given back: 0.722

Asked: For Saccharomyces cerevisiae, give the measured protein stability index of the entry EWFYEKFLGNIF [DIP5 C-terminal 12 aa]
Given back: 0.702

----------
- Tested on: Saccharomyces cerevisiae
- testName: protein stability index of tFT-peptide fusion (C-terminal peptide) (PSI (0-1 scale)); higher = more stable (slower turnover)
- studyConditions: genetic background: wild type; temperature: 30 C
reportedEndpoint: protein stability index
Would you mind answering with just the numeric figure?

Solved entries (count: 8):
LFSVLLFFFFHL	0.522
RERRISRIPCLS	0.276
PPVLHSSEPPDS	0.707
FGRGGGGFLTLV	0.647
QVHNTEICVPLV	0.679
SGFLLSPPRPSF	0.693
TKYIGDGCVCSC	0.645
QKFKHQNKLQSE	0.68

Asked: Answer with the recorded protein stability index for the sequence listed here: KGIGWSSDGGMG
Given back: 0.67

Asked: Answer with the recorded protein stability index for the sequence listed here: PTPPCPLVPPRP
Given back: 0.72

----------
- Test system: Saccharomyces cerevisiae
- testName: protein stability index of tFT-peptide fusion (C-terminal peptide) (PSI (0-1 scale)); higher = more stable (slower turnover)
- studyConditions: genetic background: wild type; temperature: 30 C
Binary call on protein stability index: 1 from 0.7 upward, 0 beneath that.

RRWWDHGCSGAG	0
PGPSPVLPPPPP	0
GFFFYFVLFGLS	0
PPTLVPPFPTKV	1
LLSHLSPCTRIG	0
TSQASIRDLTNK	0

Asked: Does LLPSAAKLTLLP have a reported protein stability index of at least 0.7?
Given back: 1

Asked: Does YYVGLHSFSILQ have a reported protein stability index of at least 0.7?
Given back: 1

Asked: Does FCMLCVVFLGSL have a reported protein stability index of at least 0.7?
Given back: 0

Asked: Does GAFLPLTCDIIC have a reported protein stability index of at least 0.7?
Given back: 0

Asked: Does GLSVFFFVGFIF have a reported protein stability index of at least 0.7?
Given back: 0

Asked: Does KRLCTYRMIGSL have a reported protein stability index of at least 0.7?
Given back: 0

Asked: Does PPRPPPPRPPPL have a reported protein stability index of at least 0.7?
Given back: 1

Asked: Does GRGRGGRWGRLC have a reported protein stability index of at least 0.7?
Given back: 0

Asked: Does HYTSFAVPPLVY have a reported protein stability index of at least 0.7?
Given back: 0

Asked: Does CHSICLVILEFI have a reported protein stability index of at least 0.7?
Given back: 0

Each recorded value in this set is attributed to the supplement of paper PMC10724198.
